experiment: Single dose, randomized fed vs. fasted study of the effect of food on bioavailability (pharmacokinetics); type: in vivo, healthy subjects; settings: human, serum, po, 600 mg, single oral dose 600 mg; fed (high fat diet); balanced data; read-out: t½ (mean) (converted)
EXPERIMENTAL_ENDPOINT: half-life
Please append the unit to your numeric answer.

## Input Name the reported half-life value associated with the compound CC(C)(C)NC(=O)N[C@H](C(=O)N1C[C@H]2[C@@H]([C@H]1C(=O)NC(CC1CCC1)C(=O)C(N)=O)C2(C)C)C(C)(C)C (mixture of isomers)
## Output 2.01 h

* * *

assay: Single dose, randomized fed vs. fasted study of the effect of food on bioavailability (pharmacokinetics); assay type: in vivo, healthy subjects; details: human, serum, po, 600 mg, single oral dose 600 mg; fed (non fat diet); balanced data; read-out: t½ (mean) (converted)
EXPERIMENTAL_ENDPOINT: half-life (h)
Give bare numbers, in h.

## Input Name the reported half-life value associated with the compound CC(C)(C)NC(=O)N[C@H](C(=O)N1C[C@H]2[C@@H]([C@H]1C(=O)NC(CC1CCC1)C(=O)C(N)=O)C2(C)C)C(C)(C)C (mixture of isomers)
## Output 3.2

* * *

test: Single dose, randomized fed vs. fasted study of the effect of food on bioavailability (pharmacokinetics); type: in vivo, healthy subjects; settings: human, serum, po, 600 mg, single oral dose 600 mg; fasted; balanced data; read-out: AUC(tf) (mean)
EXPERIMENTAL_ENDPOINT: AUC

## Input Name the reported AUC value associated with the molecule CC(C)(C)NC(=O)N[C@H](C(=O)N1C[C@H]2[C@@H]([C@H]1C(=O)NC(CC1CCC1)C(=O)C(N)=O)C2(C)C)C(C)(C)C (mixture of isomers) [SCH 503034]
## Output 1560 ng·h/mL

* * *

experiment: Single dose, randomized fed vs. fasted study of the effect of food on bioavailability (pharmacokinetics); assay type: in vivo, healthy subjects; conditions: human, serum, po, 600 mg, single oral dose 600 mg; fed (high fat diet); balanced data; read-out: AUC(l) (mean)
EXPERIMENTAL_ENDPOINT: AUC (ng·h/mL)
Give bare numbers, in ng·h/mL.

## Input Name the reported AUC value associated with the molecule CC(C)(C)NC(=O)N[C@H](C(=O)N1C[C@H]2[C@@H]([C@H]1C(=O)NC(CC1CCC1)C(=O)C(N)=O)C2(C)C)C(C)(C)C (mixture of isomers)
## Output 4440

* * *

assay: Single dose, randomized fed vs. fasted study of the effect of food on bioavailability (pharmacokinetics); assay type: in vivo, healthy subjects; conditions: human, serum, po, 600 mg, single oral dose 600 mg; fasted; balanced data; read-out: Tmax, median (range)
EXPERIMENTAL_ENDPOINT: Tmax

## Input Name the reported Tmax value associated with the compound CC(C)(C)NC(=O)N[C@H](C(=O)N1C[C@H]2[C@@H]([C@H]1C(=O)NC(CC1CCC1)C(=O)C(N)=O)C2(C)C)C(C)(C)C (mixture of isomers)
## Output 1.5 h

* * *

test: Single dose, randomized fed vs. fasted study of the effect of food on bioavailability (pharmacokinetics); assay type: in vivo, healthy subjects; conditions: human, serum, po, 600 mg, single oral dose 600 mg; fed (high fat diet); balanced data
EXPERIMENTAL_ENDPOINT: Cmax (ng/mL)
One number for each entry, in ng/mL.

## Input Name the reported Cmax value associated with the compound CC(C)(C)NC(=O)N[C@H](C(=O)N1C[C@H]2[C@@H]([C@H]1C(=O)NC(CC1CCC1)C(=O)C(N)=O)C2(C)C)C(C)(C)C (mixture of isomers) [SCH 503034]
## Output 1150
